experimentalTarget: Aβ42 peptide (Homo sapiens, UniProt P05067)
Sequence (P05067 672-713): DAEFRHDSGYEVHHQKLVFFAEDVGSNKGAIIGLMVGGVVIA
measurementNotes: ThT fluorescence assay of Aβ42 aggregation inhibition
Type: biochemical
experimentalConditions: peptide 5 µM + Aβ42 5 µM; 72 h, 37 °C
Where a SMILES comes first, the peptide text is derived from it. [ ]: non-standard residue; d: D form.
assayMetric: inhibition of Aβ42 aggregation (ThT assay) (%)

>  <compound>
CC(C)C[C@@H](NC(=O)[C@H](N)CCCCN)C(=O)N[C@H](CC(C)C)C(=O)N[C@H](Cc1ccccc1)C(=O)N[C@H](Cc1ccccc1)C(N)=O [NT-03] (H-[dK][dL][dL][dF][dF]-NH2)

>  <measuredResult>
54.26

$$$$
>  <compound>
CC(C)C[C@@H](NC(=O)[C@H](N)CCCCN)C(=O)N[C@H](CC(C)C)C(=O)N[C@H](Cc1ccccc1)C(=O)N[C@H](Cc1ccccc1)C(=O)N[C@H](C)C(N)=O [NT-02] (H-[dK][dL][dL][dF][dF][dA]-NH2)

>  <measuredResult>
57.61

$$$$
>  <compound>
CC(C)C[C@@H](N)C(=O)N1CCC[C@@H]1C(=O)N[C@H](Cc1ccccc1)C(=O)N[C@H](Cc1ccccc1)C(=O)N[C@H](C)C(=O)N[C@H](CCC(=O)O)C(N)=O [NT-13] (H-[dL][dP][dF][dF][dA][dE]-NH2)

>  <measuredResult>
48.41

$$$$
>  <compound>
CC(C)C[C@@H](NC(=O)[C@H](N)CCCCN)C(=O)N[C@@H](C(=O)N[C@H](Cc1ccccc1)C(=O)N[C@H](Cc1ccccc1)C(N)=O)C(C)C [NT-15, reference compound]

>  <measuredResult>
41.87

$$$$
